Target: DQ8 protein (HLA-DQ8: DQA1*03:01/DQB1*03:02) (Homo sapiens, UniProt P01909+P01920, A209T/A45G/C70Q/D89A/DUP78-78/E183D/E77G/F237L/G63E/H199R/I129T/K197E/L178F/L74F/L98V/Q57E/Q76R/S185I/S97I/T217I/T49S/V73L/Y58L)
Construct: made in house; host or cells: insect cells (Drosophila S2 is named only for the biotinylated tetramer preparation)
Assay: Peptide binding competition
Settings: competition with 0.04 µM biotinylated GAD65_250–266 index peptide in wells coated with recombinant DQ8 protein; europium-streptavidin, time resolved fluorometer; sigmoidal dose-response fit; read-out: IC50 (binding to DQ8)
Where no end group is shown, it is not given here.
measurement.name: IC50

Consider the following illustrative entries.
{"columns": ["query.sequence", "IC50"],
 "data": [
  ["FQQDKHYDLSYDTGD [GAD65 427–441]", "> 50 µM"],
  ["YVVKSFDRSTKVIDFHYPNE [GAD65 121–140]", "1.6 µM"],
  ["AKGTTGFEAHVDKCL [GAD65 461–475]", "> 50 µM"]
]}

For the next question, use this sequence.
stdin: Please indicate IC50 recorded for YIPPSLRTLEDNEE [GAD65 508–521]
stdout: > 50 µM
